# Tested on: tumor cell lines B16-F10, HepG2, K562 and HL-60
# assay notes: Alamar Blue cytotoxicity assay, summary over the tumor cell lines tested
# condition info: 72 h, read-out: IC50 in at least one of the tumor cell lines tested
metric: IC50

Worked examples follow.
INSERT INTO assay_data (compound, assay_system, reported_value) VALUES
  ('c1ccc2c(c1)C[C@H]1NCCc3cc4c(c-2c31)OCO4 [(+)-Anonaine, (+)-anonaine]', 'tumor cell lines B16-F10, HepG2, K562 and HL-60', '< 20 µg/mL'),
  ('COc1ccc(CC2c3cc(O)c(OC)cc3CCN2C)cc1O (single isomer, unassigned; (+)) [(+)-Reticuline, (+)-reticuline]', 'tumor cell lines B16-F10, HepG2, K562 and HL-60', '< 20 µg/mL');

I have this compound here, COc1cc2c(cc1O)CCN1Cc3cc(OC)c(OC)cc3C[C@@H]21 [(+)-Discretine, (+)-discretine] , and I need its recorded IC50.
< 20 µg/mL

# credit: paper PMC6273342
